Target: Integrin alpha-4/beta-1 (Homo sapiens, UniProt P05556+P13612)
Sequence (P05556 whole entry): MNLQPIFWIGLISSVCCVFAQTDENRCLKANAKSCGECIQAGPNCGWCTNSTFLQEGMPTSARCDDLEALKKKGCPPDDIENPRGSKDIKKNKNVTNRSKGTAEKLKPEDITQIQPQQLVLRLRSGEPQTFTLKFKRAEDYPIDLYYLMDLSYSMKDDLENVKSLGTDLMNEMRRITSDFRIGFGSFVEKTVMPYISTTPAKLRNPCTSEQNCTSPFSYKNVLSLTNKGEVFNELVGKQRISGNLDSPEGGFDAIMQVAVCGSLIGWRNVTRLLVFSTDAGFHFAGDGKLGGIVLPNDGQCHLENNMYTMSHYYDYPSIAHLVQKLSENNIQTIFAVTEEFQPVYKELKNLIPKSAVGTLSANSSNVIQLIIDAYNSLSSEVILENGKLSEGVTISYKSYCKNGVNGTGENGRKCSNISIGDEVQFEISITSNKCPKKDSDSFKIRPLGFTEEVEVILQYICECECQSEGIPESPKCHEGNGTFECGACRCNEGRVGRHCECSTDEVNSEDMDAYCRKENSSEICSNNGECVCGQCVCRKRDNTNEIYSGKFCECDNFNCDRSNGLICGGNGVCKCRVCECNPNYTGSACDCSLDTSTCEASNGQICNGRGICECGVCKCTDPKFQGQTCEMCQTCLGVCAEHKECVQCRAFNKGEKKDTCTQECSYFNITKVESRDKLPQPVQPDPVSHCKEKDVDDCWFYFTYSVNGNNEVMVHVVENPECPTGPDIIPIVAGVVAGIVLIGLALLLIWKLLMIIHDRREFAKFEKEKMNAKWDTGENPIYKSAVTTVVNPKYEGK
Sequence (P13612 whole entry): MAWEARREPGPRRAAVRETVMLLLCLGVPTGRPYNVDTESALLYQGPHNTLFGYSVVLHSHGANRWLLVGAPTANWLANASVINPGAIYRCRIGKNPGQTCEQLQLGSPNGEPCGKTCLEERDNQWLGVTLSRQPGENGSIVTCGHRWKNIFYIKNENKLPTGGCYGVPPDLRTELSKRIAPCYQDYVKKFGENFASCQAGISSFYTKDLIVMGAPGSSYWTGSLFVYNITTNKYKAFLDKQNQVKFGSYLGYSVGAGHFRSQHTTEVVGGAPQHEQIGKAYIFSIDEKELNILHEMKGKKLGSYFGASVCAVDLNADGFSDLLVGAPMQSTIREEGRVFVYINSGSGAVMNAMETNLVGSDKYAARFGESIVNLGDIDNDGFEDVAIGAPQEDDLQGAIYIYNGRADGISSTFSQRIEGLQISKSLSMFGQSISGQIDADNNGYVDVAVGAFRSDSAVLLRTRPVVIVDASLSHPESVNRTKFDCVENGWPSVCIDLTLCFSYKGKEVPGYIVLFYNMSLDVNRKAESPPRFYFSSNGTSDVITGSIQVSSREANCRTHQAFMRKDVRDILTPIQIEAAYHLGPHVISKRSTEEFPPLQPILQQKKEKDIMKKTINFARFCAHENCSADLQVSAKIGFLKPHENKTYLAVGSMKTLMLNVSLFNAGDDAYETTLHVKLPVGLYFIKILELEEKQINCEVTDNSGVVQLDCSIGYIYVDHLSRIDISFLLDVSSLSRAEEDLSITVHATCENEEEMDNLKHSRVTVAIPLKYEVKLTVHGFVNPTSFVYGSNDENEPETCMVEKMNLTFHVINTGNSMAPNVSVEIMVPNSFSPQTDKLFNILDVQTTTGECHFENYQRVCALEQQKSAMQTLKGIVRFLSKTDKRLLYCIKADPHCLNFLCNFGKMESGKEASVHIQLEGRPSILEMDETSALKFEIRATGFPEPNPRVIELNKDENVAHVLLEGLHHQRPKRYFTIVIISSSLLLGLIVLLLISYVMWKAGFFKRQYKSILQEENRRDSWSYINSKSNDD
Assay: Inhibitory activity against alpha-4 beta-1 receptor (VLA-4) in human RPMI-8866 cells using [125I]-VCAM-Ig ligand
Type: cell-based
reported.property: pIC50
// pIC50: -log10(molar conc.)

In: # lookup: pIC50 of O=C(O)C[C@@H](NC(=O)[C@@H]1CCN1S(=O)(=O)c1cc(Cl)cc(Cl)c1)c1ccc(OCF)cc1
Out: 9.14

In: # lookup: pIC50 of CS(=O)(=O)c1ccc([C@@H](CC(=O)O)NC(=O)[C@@H]2CCCN2S(=O)(=O)c2cc(Cl)cc(Cl)c2)cc1
Out: 9.26

In: # lookup: pIC50 of O=C(O)C[C@@H](NC(=O)[C@@H]1CCN1S(=O)(=O)c1cc(Cl)cc(Cl)c1)c1ccc(Cl)c(F)c1
Out: 7.96

In: # lookup: pIC50 of COc1ccc([C@@H](CC(=O)O)NC(=O)[C@@H]2CCN2S(=O)(=O)c2cc(Cl)cc(Cl)c2)cn1
Out: 8.52
